target or system: GABA A receptor alpha-1/beta-1/gamma-2 (Homo sapiens, UniProt P14867+P18505+P18507)
Sequence (P14867 whole entry): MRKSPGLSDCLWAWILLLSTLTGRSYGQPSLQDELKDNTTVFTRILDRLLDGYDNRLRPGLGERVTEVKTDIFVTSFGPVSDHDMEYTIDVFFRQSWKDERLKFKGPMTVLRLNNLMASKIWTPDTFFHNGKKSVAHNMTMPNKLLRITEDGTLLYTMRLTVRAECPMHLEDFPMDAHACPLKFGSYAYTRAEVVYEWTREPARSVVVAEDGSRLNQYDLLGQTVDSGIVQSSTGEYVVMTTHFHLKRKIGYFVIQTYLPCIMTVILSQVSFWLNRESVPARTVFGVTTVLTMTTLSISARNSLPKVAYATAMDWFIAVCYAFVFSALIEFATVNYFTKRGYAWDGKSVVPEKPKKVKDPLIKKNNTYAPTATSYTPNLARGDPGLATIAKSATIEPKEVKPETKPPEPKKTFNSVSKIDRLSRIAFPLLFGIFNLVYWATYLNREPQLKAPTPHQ
Sequence (P18507 whole entry): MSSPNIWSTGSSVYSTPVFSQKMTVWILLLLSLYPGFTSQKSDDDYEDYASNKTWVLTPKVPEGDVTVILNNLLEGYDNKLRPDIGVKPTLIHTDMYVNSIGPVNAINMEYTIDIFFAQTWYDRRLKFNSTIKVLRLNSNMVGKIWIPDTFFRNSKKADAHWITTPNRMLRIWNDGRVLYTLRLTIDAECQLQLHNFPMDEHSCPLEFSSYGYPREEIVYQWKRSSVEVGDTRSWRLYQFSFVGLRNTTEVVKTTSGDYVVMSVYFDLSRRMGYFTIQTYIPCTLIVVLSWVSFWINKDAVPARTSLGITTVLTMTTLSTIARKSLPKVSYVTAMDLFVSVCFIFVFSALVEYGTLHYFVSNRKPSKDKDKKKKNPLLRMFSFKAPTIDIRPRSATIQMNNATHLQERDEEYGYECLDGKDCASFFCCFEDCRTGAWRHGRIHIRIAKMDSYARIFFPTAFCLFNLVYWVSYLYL
Sequence (P18505 whole entry): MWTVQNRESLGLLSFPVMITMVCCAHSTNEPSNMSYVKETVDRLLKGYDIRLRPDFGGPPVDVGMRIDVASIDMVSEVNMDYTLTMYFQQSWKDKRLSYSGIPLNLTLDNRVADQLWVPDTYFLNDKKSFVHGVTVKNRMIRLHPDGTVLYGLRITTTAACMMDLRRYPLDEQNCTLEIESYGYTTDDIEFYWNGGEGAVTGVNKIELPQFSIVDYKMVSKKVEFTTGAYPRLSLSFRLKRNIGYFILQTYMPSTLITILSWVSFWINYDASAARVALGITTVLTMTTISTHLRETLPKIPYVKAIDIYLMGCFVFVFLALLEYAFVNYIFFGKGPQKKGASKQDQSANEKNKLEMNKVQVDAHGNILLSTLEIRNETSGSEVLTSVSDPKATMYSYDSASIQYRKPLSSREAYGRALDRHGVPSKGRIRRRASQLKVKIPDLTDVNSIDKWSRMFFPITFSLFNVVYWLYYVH
method: Direct activation of chloride current in Xenopus laevis oocytes expressing human alpha-1-beta-1-gamma-2 GABA-A receptor subunits
Format: functional, cell-based, Oocyte
Assign pEC50 to each entry below.
Give bare numbers, as −log10 of the molar value.

{"structure smiles": "CC(C)c1cc(Br)cc(C(C)C)c1O", "target or system": "GABA A receptor alpha-1/beta-1/gamma-2 (Homo sapiens, UniProt P14867+P18505+P18507)", "pEC50": 4.42}
{"structure smiles": "CC(C)c1cc(C(=O)c2ccccc2)cc(C(C)C)c1O", "target or system": "GABA A receptor alpha-1/beta-1/gamma-2 (Homo sapiens, UniProt P14867+P18505+P18507)", "pEC50": 4.33}
{"structure smiles": "CC(C)c1cccc(C(C)C)c1O", "target or system": "GABA A receptor alpha-1/beta-1/gamma-2 (Homo sapiens, UniProt P14867+P18505+P18507)", "pEC50": 4.36}
{"structure smiles": "CC(C)c1cc(Cl)cc(C(C)C)c1O", "target or system": "GABA A receptor alpha-1/beta-1/gamma-2 (Homo sapiens, UniProt P14867+P18505+P18507)", "pEC50": 4.42}

Turning to the following molecule.
Find pEC50 (GABA A receptor alpha-1/beta-1/gamma-2 (Homo sapiens, UniProt P14867+P18505+P18507)) for the entry CC(C)c1cc(I)cc(C(C)C)c1O 4.29

Each recorded value in this set is attributed to ChEMBL document CHEMBL1131230.
